All values here come from PubChem BioAssay.

Examples of compounds with documented growth inhibition follow.
Assay: Restrictive medium S. cerevisiae growth inhibition, OD615, pilot screen of yeast lifespan reduction project, restrictive growth control (AID 706);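 further: modified DeaD lifespan yeast strain shifted to restrictive glucose medium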
Conditions: OD615, 48 h, at 10 µM, stronger effect = higher value
Active and inactive are the calls of the source.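 How the source made its calls: active means growth inhibition above a set limit, 3 SD over mean compound inhibition, in both replicates (cut at about 43% in these data); inconclusive means above the limit in only one replicate; inactive means at or below the limit in both replicates.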

Worked examples follow.
- compound: "CCOC(=O)C1=C(C)NC2=C(C(=O)CCC2)C1c1cc(OC)ccc1OC (stereo not drawn)"
  growth inhibition: "-12.8% (inactive)"
- compound: "CCOC(=O)c1c(C)c(-c2ccccc2)n(CC(=O)N2CCCC2)c1C"
  growth inhibition: "-12.4% (inactive)"
- compound: "COC(=O)c1c(NC(=O)CCN2CCOCC2)sc2c1CCCC2"
  growth inhibition: "-2.81% (inactive)"
- compound: "COc1ccc(C2CC(c3ccc(Cl)cc3Cl)Nc3nc(N)nn32)cc1OC (stereo not drawn)"
  growth inhibition: "22.6% (inactive)"
- compound: "Cc1cc(C)n2nc(C(=O)Oc3ccc4c(c3)OCO4)nc2n1"
  growth inhibition: "-24% (inactive)"
- compound: "Cn1c(=O)[nH]c(=O)c2c1nc(NC1CCCCC1)n2CCO"
  growth inhibition: "-22.4% (inactive)"

Continue with the next compound.
Exam item: Respond only with growth inhibition recorded for "Cc1cccc(-n2ncc3c(N4CCC(C)CC4)ncnc32)c1"
Marked response: 10.6% (inactive)

* * *

Assay: growth suppression of beta-catenin knockout HCT116, pilot screen, human colon tumor cells (AID 823);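 further: 0% = wells killed by 20 µM Hyamine and 100% = untreated DMSO cell wells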
Details: CellTiter-Glo, 60 h, at 10 µM, stronger effect = lower value
Records with an inconclusive call do not appear.
experimentalEndpoint: viability (%)
Give the number; % is assumed, so skip it.

Below, 5 compounds whose answers are already recorded.
- compound: "Cc1nc2ccccc2n1-c1ccccc1"
  experimentalEndpoint: "viability"
  quantitativeResult: 89.1
- compound: "CSC1=N/C(=C\\c2ccc(C)o2)C(=O)S1"
  experimentalEndpoint: "viability"
  quantitativeResult: 104
- compound: "O=C(CSc1nc2ccccc2c(=O)[nH]1)N1CCCCC1"
  experimentalEndpoint: "viability"
  quantitativeResult: 98.7
- compound: "CCCc1cc(C(=O)NCc2cccs2)no1"
  experimentalEndpoint: "viability"
  quantitativeResult: 101
- compound: "Clc1ccc(NCn2cncn2)nc1"
  experimentalEndpoint: "viability"
  quantitativeResult: 96.5

Exam item: Supply measured viability of COC(=O)C1C(O)=C(C=NCC(C)N=CC2=C(O)C(C(=O)OC)C(C)(C)CC2=O)C(=O)CC1(C)C (configuration not stated) in your reply.
Marked response: 92.4

* * *

Test: growth suppression of beta-catenin knockout HCT116, pilot screen, human colon tumor cells (AID 823);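 further: 0% = wells killed by 20 µM Hyamine and 100% = untreated DMSO cell wells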
Conditions: CellTiter-Glo, 60 h, at 10 µM, stronger effect = lower value
Inconclusive results are not listed.
Checkbox rule: viability lower than 90% = label 1; viability not lower than 90% = label 0.

- compound: "CCCCn1c(=O)cc(N2CCOCC2)[nH]c1=O"
  assignedCategory: "label 0"
- compound: "N#Cc1c(SCC(N)=O)nc2c(c1-c1ccc(O)cc1)CCCC2"
  assignedCategory: "label 0"
- compound: "c1ccc(N2CCOCC2)c(Nc2nc3ccccc3n3cnnc23)c1"
  assignedCategory: "label 1"
- compound: "Cc1ccc(O)c(-c2cc(C(F)(F)C(F)F)nc(-c3ccccc3)n2)c1"
  assignedCategory: "label 1"

Exam item: Dear colleague, could you confirm whether viability of O=C1CC(c2ccc(S(=O)(=O)NC3CC3)cc2)CN1 (stereo unspecified) falls below 90%? Thanks.
Marked response: label 0

Exam item: Consider the compound "Cc1cccc(-n2ccnc2SCC(=O)Nc2nnc(C)s2)c1" . Is its viability strictly less than 90%?
Marked response: label 1

Exam item: Given Cc1cc(C)cc(OCC(O)CN2C(=O)NC(C)(C)C2=O)c1 (stereo unspecified) , is recorded viability strictly lower than 90%?
Marked response: label 0

Exam item: Consider the compound "O=C(Nc1ccccc1Cl)c1ccc(S(=O)(=O)N2CCOCC2)cc1" . Is its viability strictly less than 90%?
Marked response: label 0

Exam item: Dear reviewer, please state whether "O=C(CCC(=O)OCCCC(F)(F)C(F)(F)F)Nc1ccccc1" has viability strictly beneath 90%.
Marked response: label 0

Exam item: Lab log: compare recorded viability with 90%; is it strictly lower for Cc1ccccc1OCC(O)Cn1c(NCCN(C)C)nc2c1c(=O)n(C)c(=O)n2C (stereo unspecified) ?
Marked response: label 0

Exam item: Please let me know if "O=C(CCS(=O)(=O)c1ccccc1)Nc1nc(-c2ccccn2)cs1" shows viability below 90%.
Marked response: label 1

* * *

Test: RAM signaling pathway blockade in yeast – S. cerevisiae, Pdr1DBD-CYC8 efflux-inhibited sensitized strain, primary screen (AID 1298);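 further: 0% = DMSO untreated cells without growth and 100% = 10 µM 1-NA-PP1 full growth; higher means more yeast growth rescued from 5-FOA killing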
Details: S. cerevisiae cbk1-as DSE1-URA3 strain, 5-FOA growth OD615, 2 d; at 50 µM; stronger effect = higher value
experimentalEndpoint: RAM network inhibition (%)
Please give a number only; it is taken to be in %.

Solved entries (count: 4):
- compound: "COc1cc(NC(=O)C(F)(F)F)cc(OC)c1"
  unitString: "%"
  RAM network inhibition: 1.3
- compound: "CCC(C)Nc1nc2c(c(=O)n(C)c(=O)n2C)n1Cc1ccc(Cl)cc1 (centres undefined)"
  unitString: "%"
  RAM network inhibition: 4.57
- compound: "O=C1Nc2ccccc2C(O)(C(=O)NCc2ccco2)N1c1ccccc1 (centres undefined)"
  unitString: "%"
  RAM network inhibition: 1.15
- compound: "CCOC(=O)CCc1c(C)n(CC)c2ncnn2c1=O"
  unitString: "%"
  RAM network inhibition: 0.04

Exam item: Give the value of RAM network inhibition reported for the following: COC(=O)C1=COC(C)C2CN3CCc4c([nH]c5ccccc45)C3CC12 (centres undefined)
Marked response: 7.8

Exam item: Give recorded RAM network inhibition. "CC(=O)Nc1ccc(C(=O)c2ccccc2)cc1"
Marked response: 0.62

* * *

Experiment: RAM signaling pathway blockade in yeast – S. cerevisiae, Pdr1DBD-CYC8 efflux-inhibited sensitized strain, primary screen (AID 1298);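 further: 0% = DMSO untreated cells without growth and 100% = 10 µM 1-NA-PP1 full growth; higher means more yeast growth rescued from 5-FOA killing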
Details: S. cerevisiae cbk1-as DSE1-URA3 strain, 5-FOA growth OD615, 2 d; at 50 µM; stronger effect = higher value
experimentalEndpoint: RAM network inhibition (%)
Respond numerically; units are % and should not be typed.

Exam item: Output RAM network inhibition of "O=S(=O)(c1cccc(-n2cnnn2)c1)N1CCOCC1"
Marked response: 2.96

Exam item: Give me measured RAM network inhibition, please, for this molecule: "COc1ccc(OC)c(N(CC(=O)Nc2ccc3c(c2)OCCO3)S(C)(=O)=O)c1"
Marked response: 3.49

Exam item: Input O=C(O)CC(C(=O)NC1CCCCC1)C1CCCO1 (stereo unspecified) , output reported RAM network inhibition.
Marked response: 1.76

Exam item: Identify the reported RAM network inhibition for the following entry. "Cc1ccc2oc(=O)c3cc(C(=O)N4CCN(C(=O)c5ccco5)CC4)sc3c2c1"
Marked response: 3.77

Exam item: Please report RAM network inhibition for the following molecule: "O=C(c1ccco1)N1CCN=C1SCc1cccc(Cl)c1"
Marked response: 0.26

Exam item: Respond only with RAM network inhibition recorded for "Cc1noc(C(=O)Nc2c(C)nn(Cc3ccccc3)c2C)c1Cl"
Marked response: 3.63

Exam item: Report RAM network inhibition, nothing else, for this molecule: Cc1ccc(N(C(C)C(=O)O)S(=O)(=O)c2cccnc2)cc1 (stereo unspecified)
Marked response: 1.61

Exam item: Tell me RAM network inhibition reported for "CCN(CC)S(=O)(=O)c1ccc(Cl)c(C(=O)NC2CCCC2)c1"
Marked response: 3.38

Exam item: Give the reported value of RAM network inhibition for this record: "CCOC(=O)C1=C(C)N(C)C(C)=C(C(=O)OCC)C1c1ccccn1"
Marked response: 0.62

Exam item: For the molecule O=C(O)CCCCCN1C(=O)C(=O)/C(=C(/O)c2ccccc2)C1c1ccccc1 (stereo unspecified) , report RAM network inhibition.
Marked response: 2.1

Exam item: Look up and state reported RAM network inhibition for "O=C(O)CCCC(=O)NCCCc1ccccc1"
Marked response: 2.45

* * *

Assay: OD615 S. cerevisiae growth inhibition, permissive medium, pilot counter-assay, permissive growth control for S. cerevisiae lifespan shortening project (AID 705)
Settings: OD615, 24 h, at 10 µM, stronger effect = higher value
experimentalEndpoint: growth inhibition (%)
# number only, unit % dropped from output

Solved entries:
- molecule: "Cc1cc(C)c2c(n1)nn1c(C)c(CCC(=O)NCc3ccco3)c(C)nc21"
  growth inhibition / %: 3.4
- molecule: "CCOc1ccc(N(CC(=O)N2CCCC2)S(=O)(=O)c2c(C)noc2C)cc1"
  growth inhibition / %: -10.4
- molecule: "COc1cccc(-c2cc(C(=O)N3CCN(c4ncccn4)CC3)c3ccccc3n2)c1"
  growth inhibition / %: 0.09
- molecule: "COc1ccc(C2C(C(N)=O)=C(C)Nc3nc(-c4ccccc4Cl)nn32)c(OC)c1 (stereo unspecified)"
  growth inhibition / %: -17.8
- molecule: "Cc1cc(NCc2ccco2)nc2cc(O)ccc12"
  growth inhibition / %: -11.9

Exam item: Using known records, supply growth inhibition for "COc1ccc(N2CCN(C(=O)c3ccc4c(c3)OCO4)CC2)cc1"
Marked response: -2.83

Exam item: State its growth inhibition: "Cc1cc(N=CC2=C(O)CC(C)(C)CC2=O)no1"
Marked response: -11.7

Exam item: Look up growth inhibition of "CCn1c(CNC(=O)COC)nc2ccccc21" and report it.
Marked response: -5.41

Exam item: Respond only with growth inhibition recorded for Cc1oc2c(c(=O)c1C)C(=O)CC(c1ccccc1)C2 (stereo unspecified)
Marked response: -10.3

Exam item: Write down growth inhibition measured for item CCOC(=O)C1CCCN(c2cc(=O)n(-c3ccccc3Cl)c(=O)[nH]2)C1 (stereo unspecified)
Marked response: -3.86

Exam item: Provide one value: measured growth inhibition of "Cc1ccc(-c2nn3c(C)nnc3s2)cc1NC(=O)COc1ccc(Cl)cc1"
Marked response: -4.13
